For each entry below, report its protein stability index value.
Tested on: Saccharomyces cerevisiae;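 further: PSI is a weighted mean of sequencing reads over stability bins, variants kept only with over 10 reads, mCherry proximal and sfGFP distal, peptide attached via GGGS linker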
method description: protein stability index of tFT-peptide fusion (C-terminal peptide) (PSI (0-1 scale)); higher = more stable (slower turnover)
test context: genetic background: wild type; temperature: 30 C
Numbers only.

// batch mode: one protein stability index value per listed entry
1. YLDVWTGLSCQD
2. VPFPHALLSALP

0.683
0.638

Quick batch: protein stability index for everything below.
1. IFPSRSLLAASA
2. LARFRAEWGGVV
3. LPPAPPLPPPPT
4. QQTSGVQERICL
5. VTRLTGKLVAEK
6. WGPGGRLGVGHV

1. 0.446
2. 0.691
3. 0.683
4. 0.744
5. 0.576
6. 0.676

# batch: return protein stability index for each of the 6 sequences below
1. PRRPCDPLRAPH
2. LGGGGVGGVRGV
3. WLTNKYDNIVKD
4. SWPLIFSLPNFI
5. VLFCQLFCDFFG
6. LISRFFPSRSAP

1. 0.737
2. 0.668
3. 0.763
4. 0.716
5. 0.631
6. 0.854

Value sought for every listed sequence: protein stability index.
1. VSVILAGLFWIT
2. STEFCRIIYRGP

[0.473, 0.681]
